The measured values listed here are drawn from ChEMBL document CHEMBL1212734.

- System: Staphylococcus aureus
- Method summary: Antibacterial activity against methicillin-resistant Staphylococcus aureus by broth dilution method
- Format: functional
In this section, each of the compounds is paired with its reported MIC50.
Note: unit µg/mL is implicit; provide only the numeric part.

Answered examples (3):
NCC[C@H](O)C(=O)N[C@@H]1C[C@H](N)[C@@H](O[C@H]2O[C@H](CN)[C@@H](O)[C@H](O)[C@H]2O)[C@H](O)[C@H]1O[C@H]1O[C@H](CO)[C@@H](O)[C@H](N)[C@H]1O | 8
O=C(O)c1cn(C2CC2)c2cc(N3CCNCC3)c(F)cc2c1=O | 16
NC[C@H]1O[C@H](O[C@H]2[C@H](O)[C@@H](O[C@H]3O[C@H](CO)[C@@H](O)[C@H](N)[C@H]3O)[C@H](N)C[C@@H]2N)[C@H](N)C[C@@H]1O | 128

Turning now to a further record.
Tested on Staphylococcus aureus: `C[C@H]1COc2c(N3CCN(C)CC3)c(F)cc3c(=O)c(C(=O)O)cn1c23.C[C@H]1COc2c(N3CCN(C)CC3)c(F)cc3c(=O)c(C(=O)O)cn1c23.O` . Observed MIC50: 4

* * *

In this section, each of the compounds is paired with its reported MIC50.
- System: Pseudomonas aeruginosa
- Method summary: Antibacterial activity against Pseudomonas aeruginosa by broth dilution method
- Assay type: functional
Note: unit µg/mL is implicit; provide only the numeric part.

NC[C@H]1O[C@H](O[C@H]2[C@H](O)[C@@H](O[C@H]3O[C@H](CO)[C@@H](O)[C@H](N)[C@H]3O)[C@H](N)C[C@@H]2N)[C@H](N)C[C@@H]1O | 2
O=C(O)c1cn(C2CC2)c2cc(N3CCNCC3)c(F)cc2c1=O | 1
C[C@H]1COc2c(N3CCN(C)CC3)c(F)cc3c(=O)c(C(=O)O)cn1c23.C[C@H]1COc2c(N3CCN(C)CC3)c(F)cc3c(=O)c(C(=O)O)cn1c23.O | 2
NCC[C@H](O)C(=O)N[C@@H]1C[C@H](N)[C@@H](O[C@H]2O[C@H](CN)[C@@H](O)[C@H](O)[C@H]2O)[C@H](O)[C@H]1O[C@H]1O[C@H](CO)[C@@H](O)[C@H](N)[C@H]1O | 16

Entry under test: `C[C@H]1[C@H](NC(=O)/C(=N\OC(C)(C)C(=O)O)c2csc(N)n2)C(=O)N1S(=O)(=O)O` . Its MIC50 was 4

* * *

- Tested on: Pseudomonas aeruginosa
- Method summary: Antibacterial activity against Pseudomonas aeruginosa PA5063 by broth dilution method
- Type: functional
In this section, each of the compounds is paired with its reported MIC.
Note: unit µg/mL is implicit; provide only the numeric part.

C[C@H]1COc2c(N3CCN(C)CC3)c(F)cc3c(=O)c(C(=O)O)cn1c23.C[C@H]1COc2c(N3CCN(C)CC3)c(F)cc3c(=O)c(C(=O)O)cn1c23.O [LEVOFLOXACIN] | 0.5
NCC[C@H](O)C(=O)N[C@@H]1C[C@H](N)[C@@H](O[C@H]2O[C@H](CN)[C@@H](O)[C@H](O)[C@H]2O)[C@H](O)[C@H]1O[C@H]1O[C@H](CO)[C@@H](O)[C@H](N)[C@H]1O [AMIKACIN] | 2
NC[C@H]1O[C@H](O[C@H]2[C@H](O)[C@@H](O[C@H]3O[C@H](CO)[C@@H](O)[C@H](N)[C@H]3O)[C@H](N)C[C@@H]2N)[C@H](N)C[C@@H]1O [TOBRAMYCIN] | 0.25

Entry under test: C[C@H]1[C@H](NC(=O)/C(=N\OC(C)(C)C(=O)O)c2csc(N)n2)C(=O)N1S(=O)(=O)O [AZTREONAM] . Its MIC was 8

* * *

- Tested on: Stenotrophomonas maltophilia
- Method summary: Antibacterial activity against Stenotrophomonas maltophilia by broth dilution method
- Type: functional
In this section, each of the compounds is paired with its reported MIC90.

Answered examples (3):
C[C@H]1COc2c(N3CCN(C)CC3)c(F)cc3c(=O)c(C(=O)O)cn1c23.C[C@H]1COc2c(N3CCN(C)CC3)c(F)cc3c(=O)c(C(=O)O)cn1c23.O [LEVOFLOXACIN] | 8 µg/mL
C[C@H]1[C@H](NC(=O)/C(=N\OC(C)(C)C(=O)O)c2csc(N)n2)C(=O)N1S(=O)(=O)O [AZTREONAM] | > 128 µg/mL
NC[C@H]1O[C@H](O[C@H]2[C@H](O)[C@@H](O[C@H]3O[C@H](CO)[C@@H](O)[C@H](N)[C@H]3O)[C@H](N)C[C@@H]2N)[C@H](N)C[C@@H]1O [TOBRAMYCIN] | > 32 µg/mL

Tested on Stenotrophomonas maltophilia: O=C(O)c1cn(C2CC2)c2cc(N3CCNCC3)c(F)cc2c1=O [CIPROFLOXACIN] . Observed MIC90: 16 µg/mL

Tested on Stenotrophomonas maltophilia: NCC[C@H](O)C(=O)N[C@@H]1C[C@H](N)[C@@H](O[C@H]2O[C@H](CN)[C@@H](O)[C@H](O)[C@H]2O)[C@H](O)[C@H]1O[C@H]1O[C@H](CO)[C@@H](O)[C@H](N)[C@H]1O [AMIKACIN] . Observed MIC90: > 128 µg/mL
